PROTOCOL: label from the status in PepcDB records
REPORTED_METRIC: protein production

Some sequences with recorded protein production:
- MIKHPLKILFMHGLDSSRESTKFHAIESTNKFCITIDYRNLSYNTVADFYQNTIETIQPDLLIGHNLGGYWALKLSSQYHLAAIVANPSLAPLFRDDYPSLTSKELDTDSPKIAYIELGDESLNMYDIQNVLEDYMIVDSIEGGHHRLENPSKLNILIDHIQSEYFSHTIR: failed
- MADIIGLLLPFFGLIFIGYGAARITKQPVEAMGWLNTFIIYAALPALFFKLVSKTPVEELARMDFVAASLACTYGIFLAVFLIGRFVRRNSLAETTIQSFAASYGNIGYMGPGLALLALGEKAAVPVALIVCLENAAHFIVAPAMMAVAGGDKRSAGKLALDVARKVITHPFIVSVIAGFLAASLSWQPPEAVQRLVDYLAQSAAPCALFAMGVTLALRPMKRVPVEISYIVPAKLILHPLAAYLVLSSLGRFEPVWIYSAVLLAALPTATNVFVIGQQYHVWQERASATILISTVLSVFTLTGVVYFIQPF: failed
- MSIEVIAVRLTKGMDLKLSLAKLVAEHDIKAGSIASCVGCISDLNLRLAGAESTLTKREPFEIVSVMGTLTPEHQHVHISVSDREGRVWGGHLLEGTVIDTTAELIIHSYSELEFTRAMDDSTGYTELQVNPSKLEHHHHHH: not failed
- MALRLALSLCVYLLFTQGAQGNTDDFDCVEIYKQPAFQHPLLKDHKIQETFSLDGKIERSNKYNTKEHCPKGTVAILRQRNVSKGVHLNTAEYSGQHFATIETILDGSIYRGAEADISIHDLKLQNNQYSKSQIWLENGPPGQLNSIQAGLAVHPRLYGDSVTRFTIYWTGDGYQKTGCYNTQCPGFVVVSRNSRIGSGFWGTSVYGKTSLTFKLQVFQDGFSGNWALKMFDEVIGYWPKELFSHLNNGASLVRYGGNTFESPDGISPPMGNGFFPVADFKKTAHFNNVVVINSDYKRVYIEGRKIRLYVDSYNCFRATYWGYTKSTGEAFSFGGPGGNCGF: failed
- MRKKKDGQNLPDFRKNPPKLDKKAYEKELKRLQAELVDLQQWVVETGARVVIVMEGRDAAGKGSAIKRITQYLNPRSARIEALPTPNSREKGQWYFQRYIEKLPTAGEIVIFDRSWYNRAGVERVMGFCTSQEYRRFLHQAPIFERLLVEDGIHLRKYWFSVSDEEQIERFEDRLSDPLRRWKLSPMDLQSITRWEDYSRAKDEMFIHTDIPSAPWYTVESEDKKRSRINVISHLLSTIPYEKIDRPLPEIPHRPDSESDYVRPPRDEFRYVPDVAAHLEEERIKKEEKAKKAKKPAKAAGKNSDKQKSSGGKGKKKSKK: failed

Endpoint output: protein production of MFKGDMNKKRAKALQKVKEAITLHGGQTILSTGITGDDARLAKAVCEAGVKLLEPNHPALALARGHKGVSNMHAAEQIRHEITNSQMAEAVHGVRNVVPDDIFITVGIAGGFTETLPVPLSEKEILEIARAGADGLHTHKSDWDDLQDIVNLAHQYGLTVDAYIGHPDDLHTFGIPARTPEEVASVAKRMQDIGVDMIGLMTGMSYEGVAAGDIPQMIKDRLRALVGAVDVPTLAEGGINLANAKAFKDTGVNILVVGTAIDNMVCNAAKEAVTPFIVH . Value?
not failed

Record request: protein production value, item MDELRELLKGEQQGIKILKEVLKKAKEGDEQELARLNQEIVKGEKQGVKVYKEAAEKARNPEKRQVIDKILEDEEKHIEWHKAASKQGNAEQFASLVQQHLQDEQRHVEEIEKKNLEHHHHHH
not failed
